Target: Retinoic acid receptor gamma (Homo sapiens, UniProt P13631)
Sequence (P13631 whole entry): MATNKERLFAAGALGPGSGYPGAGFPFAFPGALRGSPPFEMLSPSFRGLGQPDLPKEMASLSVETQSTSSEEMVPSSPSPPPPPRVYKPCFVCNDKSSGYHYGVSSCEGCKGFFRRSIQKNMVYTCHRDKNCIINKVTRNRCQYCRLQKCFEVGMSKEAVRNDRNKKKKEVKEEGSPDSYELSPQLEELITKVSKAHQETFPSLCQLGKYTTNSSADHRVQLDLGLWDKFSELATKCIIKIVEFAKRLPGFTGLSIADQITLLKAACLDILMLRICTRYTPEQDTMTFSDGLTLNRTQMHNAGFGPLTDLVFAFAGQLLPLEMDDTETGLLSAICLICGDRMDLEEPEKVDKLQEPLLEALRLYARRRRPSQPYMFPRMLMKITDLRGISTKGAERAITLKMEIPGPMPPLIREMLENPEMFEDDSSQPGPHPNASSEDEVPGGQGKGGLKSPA
Test: Transcriptional activation for RAR gamma receptor
pEC50: −log10 of the molar value.
Label YES for high-side pEC50 (at or above 7) and NO for low-side pEC50 (below it).

item.smiles | category
CC1(C)CCC(C)(C)c2cc(/C=C/c3ccc(C(=O)O)cc3)ccc21 | YES
CCc1cc2c(cc1/C(C)=C/c1ccc(C(=O)O)cc1)C(C)(C)CCC2(C)C | NO
C/C(=C\c1ccc2c(c1)C(C)(C)CCC2(C)C)c1ccc(C(=O)O)cc1 | YES
Cc1cc2c(cc1/C=C/c1ccc(C(=O)O)cc1)C(C)(C)CCC2(C)C | YES

====

Target: Retinoic acid receptor RXR-alpha (Homo sapiens)
Sequence (P19793 whole entry): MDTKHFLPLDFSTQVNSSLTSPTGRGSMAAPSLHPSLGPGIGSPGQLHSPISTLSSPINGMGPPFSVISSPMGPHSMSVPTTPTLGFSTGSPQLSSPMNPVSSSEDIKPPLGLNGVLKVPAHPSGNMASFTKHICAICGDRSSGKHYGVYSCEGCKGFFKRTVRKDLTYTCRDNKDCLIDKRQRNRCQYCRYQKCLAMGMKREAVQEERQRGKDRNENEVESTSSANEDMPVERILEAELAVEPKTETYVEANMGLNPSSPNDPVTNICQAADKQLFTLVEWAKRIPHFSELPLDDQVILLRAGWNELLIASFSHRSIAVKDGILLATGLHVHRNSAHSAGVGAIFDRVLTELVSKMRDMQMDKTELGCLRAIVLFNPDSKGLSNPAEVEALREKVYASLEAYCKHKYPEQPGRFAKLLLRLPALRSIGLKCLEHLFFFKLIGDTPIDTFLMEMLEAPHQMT
Test: Transcriptional activation for RXR alpha receptor
pEC50: −log10 of the molar value.

item.smiles | tested.system | value.comparator | pEC50
CCc1cc2c(cc1/C(C)=C/c1ccc(C(=O)O)cc1)C(C)(C)CCC2(C)C | Retinoic acid receptor RXR-alpha (Homo sapiens) | = | 5.65
C/C(=C\c1ccc(C(=O)O)cc1)c1cc2c(cc1C)C(C)(C)CCC2(C)C | Retinoic acid receptor RXR-alpha (Homo sapiens) | = | 6.41
C/C(=C\c1ccc(C(=O)O)cc1)c1cc2c(cc1Br)C(C)(C)CCC2(C)C | Retinoic acid receptor RXR-alpha (Homo sapiens) | = | 6.53
CC(=Cc1ccc(C(=O)O)cc1)c1cc2c(cc1C)C(C)(C)CCC2(C)C | Retinoic acid receptor RXR-alpha (Homo sapiens) | < | 5.19
C/C(=C\c1ccc(C(=O)O)cc1)c1cc2c(cc1Cl)C(C)(C)CCC2(C)C | Retinoic acid receptor RXR-alpha (Homo sapiens) | = | 6.56
